Listed here are binders together with their documented pKd.
Biological target: T1, RSV prefusion F (preF), subtype B (respiratory syncytial virus subtype B)
T1 construct: also called Prefusion subtype B
Assay: BLI, IgG
pKd: −log10 of the molar value.
measuredProperty: pKd

binder: ADI-19509 (antibody, V domains shown, full-length IgG) VH: EVQLVESGGGLVKPGGSLRLSCAASGFTFSSYSMNWVRQAPGKGLEWVSSISSSSSYIYYADSVKGRFTISRDNAKNSLYLQMNSLRAEDTAVYYCASSRRSLTGDRGGWFDPWGQGTLVTVSS VL: QSVLTQPPSVSGAPGQRVTISCTGSSSNIGAGYDVHWYQQLPGTAPKLLIYGNSNRPSGVPDRFSGSKSGTSASLAITGLQAEDEADYYCQSYDSSLSGWVFGGGTKLTVL
val: 8.80

binder: ADI-24800 (antibody, V domains shown, full-length IgG) VH: EVQLLESGGGLVKPGGSLRLSCAASGFTFSSYSMNWVRQAPGKGLEWVSSISSSSSYIYYADSVKGRFTISRDNAKNSLYLQMNSLRAEDTAVYYCARVRGGYSYGYGMDVWGQGTTVTVSS VL: QSVVTQPPSVSGAPGQRVTISCTGSSSNIGAGFDVHWYQQLPGTAPKLLIYGNSNRPSGVPDQFSGSKSGTSASLAITGLQAEDEADYYCQSYDSSLSGVVFGGGTKLTVL
val: 7.29

binder: ADI-14353 (antibody, V domains shown, full-length IgG; also called Ab 21) VH: QVQLVQSGAEVKKPGSSVKVSCKASGGTFSSYTISWVRQAPGQGLEWMGRIKPIIGIANNAQRFKGRVTITAEKSTGTAYMELSSLTSEDTAVYYCARGGYDYYGMDVWGQGTTVTVSS VL: QSALTQPASVSGSPGQSITISCTGTSSDVGGYNYVSWHQQHPGKAPKLLIYDVSNRPSGVSNRFSGSKSGNTASLSISGLQAEDEADYYCSSFTSTSTPYVFGTGTQLTVL
val: 7.90
